# experiment.notes: Cytotoxicity against mouse NMuMG cells assessed as hexosaminidase level after 72 hrs by colorimetric analysis
# Assay type: cell-based
measurement.kind: log10(IC50) (log10 of the value in µM)
Plainly stated, the numbers are log10 of IC50 given in µM.

Example molecules with recorded log10(IC50):
smiles.text: COC(=O)[C@H](Cc1ccccc1)NC(=O)[C@H](CC(C)C)NC(=O)c1cn(C[C@@H]2N3C(=O)C(Br)(Br)[C@H]3S(=O)(=O)C2(C)C)nn1
recorded.number: 0.85
--
smiles.text: CC[C@H](C)[C@H](NC(=O)c1cn(C[C@@H]2N3C(=O)C(Br)(Br)[C@H]3SC2(C)C)nn1)C(=O)N[C@@H](Cc1ccc(O)cc1)C(=O)OC
recorded.number: 1.98
--
smiles.text: CC[C@H](C)[C@H](NC(=O)c1cn(C[C@@H]2N3C(=O)C(Br)(Br)[C@H]3SC2(C)C)nn1)C(=O)N[C@@H](Cc1ccccc1)C(=O)OC
recorded.number: 1.92
--
smiles.text: COC(=O)[C@H](Cc1ccccc1)NC(=O)[C@H](CCSC)NC(=O)c1cn(C[C@@H]2N3C(=O)C(Br)(Br)[C@H]3SC2(C)C)nn1
recorded.number: 2.44
--
smiles.text: COC(=O)[C@H](CC(C)C)NC(=O)[C@H](CC(C)C)NC(=O)c1cn(C[C@@H]2N3C(=O)C(Br)(Br)[C@H]3SC2(C)C)nn1
recorded.number: 1.94

Exercise: # input molecule: COC(=O)[C@H](Cc1ccccc1)NC(=O)[C@@H]1CCCN1C(=O)c1cn(C[C@@H]2N3C(=O)C(Br)(Br)[C@H]3SC2(C)C)nn1 ; wanted: its log10(IC50)
Key: 1.74

Exercise: What about this molecule? COC(=O)[C@H](Cc1ccccc1)NC(=O)[C@H](CC(C)C)NC(=O)c1cn(C[C@@H]2N3C(=O)C[C@H]3SC2(C)C)nn1
Key: 2.55

Exercise: What about this molecule? COC(=O)[C@H](Cc1ccccc1)NC(=O)c1cn(C[C@@H]2N3C(=O)C(Br)(Br)[C@H]3SC2(C)C)nn1
Key: 2.10

Exercise: What about this molecule? COC(=O)[C@H](Cc1ccccc1)NC(=O)[C@@H](NC(=O)c1cn(C[C@@H]2N3C(=O)C(Br)(Br)[C@H]3SC2(C)C)nn1)C(C)C
Key: 2.23

Exercise: What about this molecule? COC(=O)[C@H](Cc1ccccc1)NC(=O)[C@H](CC(C)C)NC(=O)c1cn(C[C@@H]2N3C(=O)C(Br)(Br)[C@H]3SC2(C)C)nn1
Key: 2.01

====

# experiment.notes: Selectivity ratio of IC50 for mouse NMuMG cells to IC50 for mouse B16F0 cells
# Format: ADME, cell-based
# condition.description: NMuMG cells and B16F0 cells, read-out: Ratio IC50
Output TRUE for records whose selectivity ratio is lower than 10, FALSE for records at or above 10.

smiles.text: CC[C@H](C)[C@H](NC(=O)c1cn(C[C@@H]2N3C(=O)C(Br)(Br)[C@H]3SC2(C)C)nn1)C(=O)N[C@@H](Cc1ccc(O)cc1)C(=O)OC
class.label: TRUE
--
smiles.text: CC[C@H](C)[C@H](NC(=O)c1cn(C[C@@H]2N3C(=O)C(Br)(Br)[C@H]3SC2(C)C)nn1)C(=O)N[C@@H](Cc1ccccc1)C(=O)OC
class.label: TRUE
--
smiles.text: COC(=O)[C@H](Cc1ccccc1)NC(=O)[C@@H]1CCCN1C(=O)c1cn(C[C@@H]2N3C(=O)C(Br)(Br)[C@H]3SC2(C)C)nn1
class.label: TRUE
--
smiles.text: COC(=O)[C@H](CC(C)C)NC(=O)[C@H](CC(C)C)NC(=O)c1cn(C[C@@H]2N3C(=O)C(Br)(Br)[C@H]3SC2(C)C)nn1
class.label: FALSE
--
smiles.text: COC(=O)[C@H](Cc1ccccc1)NC(=O)[C@H](CCSC)NC(=O)c1cn(C[C@@H]2N3C(=O)C(Br)(Br)[C@H]3SC2(C)C)nn1
class.label: FALSE
--
smiles.text: COC(=O)[C@H](Cc1ccccc1)NC(=O)c1cn(C[C@@H]2N3C(=O)C(Br)(Br)[C@H]3SC2(C)C)nn1
class.label: FALSE
--
smiles.text: COC(=O)[C@H](Cc1ccccc1)NC(=O)[C@H](CC(C)C)NC(=O)c1cn(C[C@@H]2N3C(=O)C[C@H]3SC2(C)C)nn1
class.label: FALSE
--
smiles.text: COC(=O)[C@H](Cc1ccccc1)NC(=O)[C@@H](NC(=O)c1cn(C[C@@H]2N3C(=O)C(Br)(Br)[C@H]3SC2(C)C)nn1)C(C)C
class.label: FALSE

Exercise: Problem: For the molecule COC(=O)[C@H](Cc1ccccc1)NC(=O)[C@H](CC(C)C)NC(=O)c1cn(C[C@@H]2N3C(=O)C(Br)(Br)[C@H]3S(=O)(=O)C2(C)C)nn1 , is selectivity ratio under 10?
Key: TRUE

Exercise: What about this molecule? COC(=O)[C@H](Cc1ccccc1)NC(=O)[C@H](CC(C)C)NC(=O)c1cn(C[C@@H]2N3C(=O)C(Br)(Br)[C@H]3SC2(C)C)nn1
Key: FALSE

====

# experiment.notes: Selectivity ratio of IC50 for mouse NMuMG cells to IC50 for human HeLa cells
# Type: ADME, cell-based
# condition.description: NMuMG cells and HeLa cells, read-out: Ratio IC50
The entries below come with measured selectivity ratio values attached.
Please reply with the value in numeric form only.

smiles.text: COC(=O)[C@H](Cc1ccccc1)NC(=O)[C@H](CC(C)C)NC(=O)c1cn(C[C@@H]2N3C(=O)C(Br)(Br)[C@H]3SC2(C)C)nn1
selectivity ratio: 34

Exercise: # input compound: COC(=O)[C@H](Cc1ccccc1)NC(=O)[C@@H]1CCCN1C(=O)c1cn(C[C@@H]2N3C(=O)C(Br)(Br)[C@H]3SC2(C)C)nn1 ; wanted: its selectivity ratio
Key: 3

Exercise: What about this compound? COC(=O)[C@H](Cc1ccccc1)NC(=O)[C@H](CCSC)NC(=O)c1cn(C[C@@H]2N3C(=O)C(Br)(Br)[C@H]3SC2(C)C)nn1
Key: 27.5

Exercise: What about this compound? COC(=O)[C@H](Cc1ccccc1)NC(=O)c1cn(C[C@@H]2N3C(=O)C(Br)(Br)[C@H]3SC2(C)C)nn1
Key: 9

Exercise: What about this compound? COC(=O)[C@H](Cc1ccccc1)NC(=O)[C@@H](NC(=O)c1cn(C[C@@H]2N3C(=O)C(Br)(Br)[C@H]3SC2(C)C)nn1)C(C)C
Key: 10.6

Exercise: What about this compound? COC(=O)[C@H](Cc1ccccc1)NC(=O)[C@H](CC(C)C)NC(=O)c1cn(C[C@@H]2N3C(=O)C[C@H]3SC2(C)C)nn1
Key: 27

====

# experiment.notes: Selectivity ratio of IC50 for mouse NMuMG cells to IC50 for human HeLa cells
# Format: ADME, cell-based
# condition.description: NMuMG cells and HeLa cells, read-out: Ratio IC50
measurement.kind: selectivity ratio

smiles.text: COC(=O)[C@H](CC(C)C)NC(=O)[C@H](CC(C)C)NC(=O)c1cn(C[C@@H]2N3C(=O)C(Br)(Br)[C@H]3SC2(C)C)nn1
selectivity ratio: 10
--
smiles.text: CC[C@H](C)[C@H](NC(=O)c1cn(C[C@@H]2N3C(=O)C(Br)(Br)[C@H]3SC2(C)C)nn1)C(=O)N[C@@H](Cc1ccccc1)C(=O)OC
selectivity ratio: 5.5

Read the next record carefully.
Exercise: # input compound: COC(=O)[C@H](Cc1ccccc1)NC(=O)[C@H](CC(C)C)NC(=O)c1cn(C[C@@H]2N3C(=O)C(Br)(Br)[C@H]3S(=O)(=O)C2(C)C)nn1 ; wanted: its selectivity ratio
Key: 3.5

====

The entries below come with measured log10 IC50 values attached.
# experiment.notes: Cytotoxicity against mouse B16F0 cells assessed as hexosaminidase level after 72 hrs by colorimetric analysis
# Type: functional, cell-based
# condition.description: B16F0, 72 h
Plainly stated, the numbers are log10 of IC50 given in µM.

Example compounds with recorded log10 IC50:
smiles.text: CC[C@H](C)[C@H](NC(=O)c1cn(C[C@@H]2N3C(=O)C(Br)(Br)[C@H]3SC2(C)C)nn1)C(=O)N[C@@H](Cc1ccc(O)cc1)C(=O)OC
log10 IC50: 1.30
--
smiles.text: COC(=O)[C@H](Cc1ccccc1)NC(=O)[C@@H](NC(=O)c1cn(C[C@@H]2N3C(=O)C(Br)(Br)[C@H]3SC2(C)C)nn1)C(C)C
log10 IC50: 0.95
--
smiles.text: COC(=O)[C@H](Cc1ccccc1)NC(=O)[C@H](CC(C)C)NC(=O)c1cn(C[C@@H]2N3C(=O)C[C@H]3SC2(C)C)nn1
log10 IC50: 1.00
--
smiles.text: COC(=O)[C@H](Cc1ccccc1)NC(=O)c1cn(C[C@@H]2N3C(=O)C(Br)(Br)[C@H]3SC2(C)C)nn1
log10 IC50: 1.00
--
smiles.text: CC[C@H](C)[C@H](NC(=O)c1cn(C[C@@H]2N3C(=O)C(Br)(Br)[C@H]3SC2(C)C)nn1)C(=O)N[C@@H](Cc1ccccc1)C(=O)OC
log10 IC50: 0.95

Exercise: # input compound: COC(=O)[C@H](Cc1ccccc1)NC(=O)[C@H](CC(C)C)NC(=O)c1cn(C[C@@H]2N3C(=O)C(Br)(Br)[C@H]3S(=O)(=O)C2(C)C)nn1 ; wanted: its log10 IC50
Key: 0.30

Exercise: What about this compound? COC(=O)[C@H](Cc1ccc(O)cc1)NC(=O)[C@H](CC(C)C)NC(=O)c1cn(C[C@@H]2N3C(=O)C(Br)(Br)[C@H]3SC2(C)C)nn1
Key: 1.34

Exercise: What about this compound? COC(=O)[C@H](Cc1ccccc1)NC(=O)[C@@H]1CCCN1C(=O)c1cn(C[C@@H]2N3C(=O)C(Br)(Br)[C@H]3SC2(C)C)nn1
Key: 1.04

Exercise: What about this compound? COC(=O)[C@H](CC(C)C)NC(=O)[C@H](CC(C)C)NC(=O)c1cn(C[C@@H]2N3C(=O)C(Br)(Br)[C@H]3SC2(C)C)nn1
Key: 0.60

Exercise: What about this compound? COC(=O)[C@H](Cc1ccccc1)NC(=O)[C@H](CCSC)NC(=O)c1cn(C[C@@H]2N3C(=O)C(Br)(Br)[C@H]3SC2(C)C)nn1
Key: 0.95

Exercise: What about this compound? COC(=O)[C@H](Cc1ccccc1)NC(=O)[C@H](CC(C)C)NC(=O)c1cn(C[C@@H]2N3C(=O)C(Br)(Br)[C@H]3SC2(C)C)nn1
Key: 0.48
